B1: mRNA-splicing (parent)
chain: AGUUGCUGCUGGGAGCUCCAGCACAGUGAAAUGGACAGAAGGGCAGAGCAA

# Variants of: B1
# ASSAY NOTES: exon inclusion enrichment index; higher = more inclusion; WT1 exon 5 minigene, HEK293
Classify as follows. Reported exon inclusion enrichment index greater than or equal to 0.9: 1. Reported exon inclusion enrichment index below: 0.

Prompt line: Answer whether exon inclusion enrichment index of AGUUAUAAUUGGGAGCUCCAGCACAGUGAAAUGGACAGAAGGGCAGAGCAA [G5A C6U U7A G8A C9U] is greater than or equal to 0.9.
Response line: 0

Prompt line: Answer whether exon inclusion enrichment index of AGGAACCACCGGGAGCUCCAGCACAGUGAAAUGGACAGAAGGGCAGAGCAA [U3G U4A G5A U7C G8A U10C] is greater than or equal to 0.9.
Response line: 1

Prompt line: Answer whether exon inclusion enrichment index of AGUUGCUGCUGGCAGCUCCAGCACAGUGAAAUGGACAGAAGGGCAGAGCAA [G13C] is greater than or equal to 0.9.
Response line: 0

Prompt line: Answer whether exon inclusion enrichment index of AGUUCACACAGGGAGCUCCAGCACAGUGAAAUGGACAGAAGGUGAGAGCAA [G5C C6A U7C G8A U10A G43U C44G] is greater than or equal to 0.9.
Response line: 0

Prompt line: Answer whether exon inclusion enrichment index of AGUUACCACCGGGAGCUCCAGCACAGUGAAAUGGACAGAGAGGCAGAGCAA [G5A U7C G8A U10C A40G G41A] is greater than or equal to 0.9.
Response line: 1

Prompt line: Answer whether exon inclusion enrichment index of AGUUAGGGAUGGGAGCUCCAAAACAGUGAAAUGGACAGAAGGGCAGAGCAA [G5A C6G U7G C9A G21A C22A] is greater than or equal to 0.9.
Response line: 0

Prompt line: Answer whether exon inclusion enrichment index of AGUUGAAGAAGGGACAUCCAGCACAGUGAAAUGGACAGAAGGGCAGAGCAA [C6A U7A C9A U10A G15C C16A] is greater than or equal to 0.9.
Response line: 0

Prompt line: Answer whether exon inclusion enrichment index of AGUUGACGACGGGAGCUCCAUCACAGUGAAAUGGACAGAAGGGCAGAGCAA [C6A U7C C9A U10C G21U] is greater than or equal to 0.9.
Response line: 1

Prompt line: Answer whether exon inclusion enrichment index of AGUUCGCGCGUGGAGCUCCAGCACAGUGAAAUGGACAGAAGGGCAGAGCAA [G5C C6G U7C U10G G11U] is greater than or equal to 0.9.
Response line: 1

Prompt line: Answer whether exon inclusion enrichment index of AGUUAGGGAUGGGAGCUCCAGCACAGUGAUGUGGACAGAAGGGCAGAGCAA [G5A C6G U7G C9A A30U A31G] is greater than or equal to 0.9.
Response line: 0

Prompt line: Answer whether exon inclusion enrichment index of AGUUGCUGCUGGGAGCUCCAGCAUCGUGAAAUGGACAGAAGGGCAGAGCAA [C24U A25C] is greater than or equal to 0.9.
Response line: 1

Prompt line: Answer whether exon inclusion enrichment index of AGUUGACGACGGGAGCUCCAGCACAGUGAAAUGGACCUAAGGGCAGAGCAA [C6A U7C C9A U10C A37C G38U] is greater than or equal to 0.9.
Response line: 1

Prompt line: Answer whether exon inclusion enrichment index of AGUUCACACAGGGAGCUCCAGCACUAUGAAAUGGACAGAAGGGCAGAGCAA [G5C C6A U7C G8A U10A A25U G26A] is greater than or equal to 0.9.
Response line: 0

Prompt line: Answer whether exon inclusion enrichment index of AGUUCUUCAUGGGAGCUCCAGCACAGUGAAAUGGACAGAAGGGCAGAGCAA [G5C C6U G8C C9A] is greater than or equal to 0.9.
Response line: 1

Prompt line: Answer whether exon inclusion enrichment index of AGUUACCACCGGCCGCUCCAGCACAGUGAAAUGGACAGAAGGGCAGAGCAA [G5A U7C G8A U10C G13C A14C] is greater than or equal to 0.9.
Response line: 1

Prompt line: Answer whether exon inclusion enrichment index of AGUUGACGACGGGAGCCCCAGCACAGUGAAAUGGACAGAAGGGCAGAGCAA [C6A U7C C9A U10C U17C] is greater than or equal to 0.9.
Response line: 1

Prompt line: Answer whether exon inclusion enrichment index of AGUUAGGGAUGGGAGCUCCAGCACAGUGCAAUGGACAGAAGGGCAGAGCAA [G5A C6G U7G C9A A29C] is greater than or equal to 0.9.
Response line: 0

Prompt line: Answer whether exon inclusion enrichment index of AGUUGAAGAAGAUAGCUCCAGCACAGUGAAAUGGACAGAAGGGCAGAGCAA [C6A U7A C9A U10A G12A G13U] is greater than or equal to 0.9.
Response line: 0

Prompt line: Answer whether exon inclusion enrichment index of AGUUCUUCUCGGGAGCUCCAGCAGGGUGAAAUGGACAGAAGGGCAGAGCAA [G5C C6U G8C C9U U10C C24G A25G] is greater than or equal to 0.9.
Response line: 1

Prompt line: Answer whether exon inclusion enrichment index of AGUUAUAUAUGGGAGCUCCAGCACAGUGAAAUGGACUCAAGGGCAGAGCAA [G5A C6U U7A G8U C9A A37U G38C] is greater than or equal to 0.9.
Response line: 0

Prompt line: Answer whether exon inclusion enrichment index of AAAUAGGGAUGGGAGCUCCAGCACAGUGAAAUGGACAGAAGGGCAGAGCAA [G2A U3A G5A C6G U7G C9A] is greater than or equal to 0.9.
Response line: 0

Prompt line: Answer whether exon inclusion enrichment index of AGUUAGGGAUGGGAGCUCCAGCACAGUGAAAUGGACAGAAGUCCAGAGCAA [G5A C6G U7G C9A G42U G43C] is greater than or equal to 0.9.
Response line: 0

Prompt line: Answer whether exon inclusion enrichment index of AGUUACGUAUGGGAGCUCCAGCACAGUGAAAUGGACAGAAGGGCAGAGCAA [G5A U7G G8U C9A] is greater than or equal to 0.9.
Response line: 0

Prompt line: Answer whether exon inclusion enrichment index of AGUUAGGGAUGGGAGCUCCAGCACAGUGAAAUGGACAGAAGGGUCGAGCAA [G5A C6G U7G C9A C44U A45C] is greater than or equal to 0.9.
Response line: 0

Prompt line: Answer whether exon inclusion enrichment index of AGUUGACGACGGGAGCUCCUCCACAGUGAAAUGGACAGAAGGGCAGAGCAA [C6A U7C C9A U10C A20U G21C] is greater than or equal to 0.9.
Response line: 1

Prompt line: Answer whether exon inclusion enrichment index of AGUUACCACCGGGAGCUCCAGCACAGUGAACGGGACAGAAGGGCAGAGCAA [G5A U7C G8A U10C A31C U32G] is greater than or equal to 0.9.
Response line: 1

Prompt line: Answer whether exon inclusion enrichment index of AGUUCACACAGGGAGCUCCAGCACAAAGAAAUGGACAGAAGGGCAGAGCAA [G5C C6A U7C G8A U10A G26A U27A] is greater than or equal to 0.9.
Response line: 0

Prompt line: Answer whether exon inclusion enrichment index of AGUUUCUUUUGGGAGCUCCAGCACAGUGAACUGGACAGAAGGGCAGAGCAA [G5U G8U C9U A31C] is greater than or equal to 0.9.
Response line: 0

Prompt line: Answer whether exon inclusion enrichment index of AGUUCUUCUCGGGAGCUCCAGCACAGUGAAAUGGACAGAAGGGCAAUGCAA [G5C C6U G8C C9U U10C G46A A47U] is greater than or equal to 0.9.
Response line: 1

Prompt line: Answer whether exon inclusion enrichment index of AGUUAUAUAUGGGAGCUCCAGCACAGUGAAAUGGACAGAAGGCGAGAGCAA [G5A C6U U7A G8U C9A G43C C44G] is greater than or equal to 0.9.
Response line: 1

Prompt line: Answer whether exon inclusion enrichment index of AGUUACCACCGGGAGCUCGAGCACAGUGAAAUGGACAGAAGGGCAGAGCAA [G5A U7C G8A U10C C19G] is greater than or equal to 0.9.
Response line: 1

Prompt line: Answer whether exon inclusion enrichment index of AGUUACCAUUGGGAGCUCCAGCACAGUGAAAUGGACAGAAGGGCAGAGCAA [G5A U7C G8A C9U] is greater than or equal to 0.9.
Response line: 1

Prompt line: Answer whether exon inclusion enrichment index of AGUUAGGGAUGGGAGCUCCAGCACAGUGAAAUGGAGAGAAGGGCAGAGCAA [G5A C6G U7G C9A C36G] is greater than or equal to 0.9.
Response line: 0

Prompt line: Answer whether exon inclusion enrichment index of AAAUGACGACGGGAGCUCCAGCACAGUGAAAUGGACAGAAGGGCAGAGCAA [G2A U3A C6A U7C C9A U10C] is greater than or equal to 0.9.
Response line: 1

Prompt line: Answer whether exon inclusion enrichment index of AGUUAUAUAUGGGAGCUCCAGCACAGUGAAAUUGACAGAAGGGCAGAGCAA [G5A C6U U7A G8U C9A G33U] is greater than or equal to 0.9.
Response line: 0

Prompt line: Answer whether exon inclusion enrichment index of AGUUACCACCGGGAGCUCCAGCACAGUGCUAUGGACAGAAGGGCAGAGCAA [G5A U7C G8A U10C A29C A30U] is greater than or equal to 0.9.
Response line: 1

Prompt line: Answer whether exon inclusion enrichment index of AGUUAUAUAUGGGAGCUCCAGCACAGUGAAAUGGCAAGAAGGGCAGAGCAA [G5A C6U U7A G8U C9A A35C C36A] is greater than or equal to 0.9.
Response line: 0

Prompt line: Answer whether exon inclusion enrichment index of AGUUUCUUUUGGGAGCUCCAGCACAGUGAAAUGGACUAAAGGGCAGAGCAA [G5U G8U C9U A37U G38A] is greater than or equal to 0.9.
Response line: 0

Prompt line: Answer whether exon inclusion enrichment index of AGUUGCUGUCGGGAGCUCCAGCACAGUGAAAUGGACAGAAGGGCAGAGCAA [C9U U10C] is greater than or equal to 0.9.
Response line: 1

Prompt line: Answer whether exon inclusion enrichment index of AGUUACCACCGGGAGCUCCAGCACAGUGAAAUGGACAGAAGAUCAGAGCAA [G5A U7C G8A U10C G42A G43U] is greater than or equal to 0.9.
Response line: 1

Prompt line: Answer whether exon inclusion enrichment index of AGUUCACACAGGGAACUCCAGCACAGUGAAAUGGACAGAAGGGCAGAGCAA [G5C C6A U7C G8A U10A G15A] is greater than or equal to 0.9.
Response line: 0

Prompt line: Answer whether exon inclusion enrichment index of AGUUCGCGCCGGGAGCUCCAGCACAGUGAAAUGGAAGGAAGGGCAGAGCAA [G5C C6G U7C U10C C36A A37G] is greater than or equal to 0.9.
Response line: 1

Prompt line: Answer whether exon inclusion enrichment index of AGCUCUUCUCGGGAGCUCCAGCACAGUGAAAUGGACAGAAGGGCAGAGCAA [U3C G5C C6U G8C C9U U10C] is greater than or equal to 0.9.
Response line: 0

Prompt line: Answer whether exon inclusion enrichment index of AGUUCAAUCAGGGAGCUCCAGCACAGUGAAAUGGACAGAAGGGCAGAGCAA [G5C C6A U7A G8U U10A] is greater than or equal to 0.9.
Response line: 0
